The measured values listed here are drawn from PubChem BioAssay (NCI).

tested on: SNB-19 CNS; experiment: NCI-60 one-dose screen, 48 h (100 = growth as untreated, 0 = no growth, -100 = all killed); details: 10 µM unless noted
The panel holds about 83,000 compounds, 20% with a hit somewhere; the sample as a whole holds those more often.
Classify by measured growth: y if it is equal to or exceeds 30%, n if it is smaller.

>>> df
                                    compound  assigned_category
 0  COc1ccc2[nH]c(=O)cc(-n3ncc(C(=O)/C=C/c4cc(OC)c(OC)c(OC)c4)c3C)c2c1                  n
 1  CNS(=O)(=O)N1CCc2c(Br)c3c(c(OC)c2C1CCc1ccccc1)OCO3 (stereo not drawn)                  n
 2  COc1ccc2[nH]c(O)c(N=Nc3nc(-c4ccc(Cl)cc4)cs3)c2c1                  n
 3  N#Cc1ccc(C(=O)CSc2nc3c(c(Nc4ccc(S(N)(=O)=O)cc4)n2)CCC3)cc1                  n
 4  CCOc1ccccc1[C@H]1C(C(=O)c2ccc(Cl)cc2)C2(N[C@@H]1c1ccccc1)C(=O)Nc1ccc(Cl)cc12 (stereo partly drawn)                  y
 5  CCCN(CCC)S(=O)(=O)c1ccc(C(=O)O)cc1.CCCN(CCC)S(=O)(=O)c1ccc(C(=O)O)cc1.[Cl][Pt+2][Cl].[NH2-].[NH2-]                  n
 6            Cc1nc2sccn2c1-c1nnc(SCC(C)C)o1                  y
 7  COc1sc(/C=N/NC(=O)c2[nH]c3ccc(Br)cc3c2-c2ccccc2)cc1Br                  n
 8  COc1ccc2[nH]c(=O)c(CSc3ccccc3Nc3nccc(-c4ccc5c(c4)OCO5)n3)cc2c1                  y
 9  Clc1ccc(-c2nc3c4c(-c5ccccc5)c(-c5ccccc5)n(Cc5ccccc5)c4ncn3n2)cc1                  n
10  c1n[nH]cc1-c1nc2ccc3[nH]ncc3c2c2c1CC1(CCOCC1)CC2                  y
11  N#C/C(=C1/C(=O)Nc2ccccc21)c1nnc(NC(=O)c2ccc(-n3c(=O)[nH]c4ccccc4c3=O)cc2)s1                  y
12  O=C(O)CC1S/C(=N/N=C/c2nc3ccccc3s2)NC1=O (stereo not drawn)                  y
13  CN(C)CCOc1ccc(C(=O)C2[C@H](c3ccc(Cl)cc3)[C@@H](c3ccccc3)NC23C(=O)Nc2ccc(Cl)cc23)cc1 (stereo partly drawn)                  n
14  COc1ccc(C(=O)c2c(N)c(C#N)cn2-c2ccc([N+](=O)[O-])cc2)cc1                  y
15  CC(=O)c1ccc2c(N)c(C(=O)Nc3ccc(C(F)(F)F)cc3)sc2n1                  y
16  O=C(CSc1nnc(-c2ccc(-c3nc4ccccc4[nH]3)cc2)o1)Nc1ccccc1                  n
17  OC(c1ccccc1)(c1ccccc1)C1CCN(c2ccc3nnc(Cl)n3n2)CC1                  y
18  CC1=C(C(=O)Nc2ccccc2)C(c2cccc3ccccc23)n2c(nc3ccccc32)N1 (stereo not drawn)                  n
19  COC(=O)c1c(C(=O)OC)c2c3ccccc3c3ccccc3n2c1C(=O)C(C)(C)C                  y
20  Cc1cn(-c2cc(NC(=O)c3ccc(C)c(-n4cc(-c5cnc6cccnn56)nn4)c3)cc(C(F)(F)F)c2)cn1                  y
21  COc1ccc(SC2c3cc(OC)ccc3Oc3nc(N)c(C#N)c(N)c32)cc1 (stereo not drawn)                  y
22  O=C(N/N=C/c1ccc(Cl)o1)c1[nH]c2ccc(Br)cc2c1-c1ccccc1                  n
23  Fc1cccc(CNc2nc(SCCN3CCOCC3)nc3c2cnn3CC(Cl)c2ccc(Br)cc2)c1 (stereo not drawn)                  y
24  CN(C)c1ccc(/C=C/c2n(Cc3ccc4ccccc4c3)c3ccccc3[n+]2Cc2ccc3ccccc3c2)cc1                  n
25  CCCCC[C@@H]1C/C=C(\C)[C@@H](O)C(C)(C)C(=O)[C@@H](C)/C=C(\C)[C@@H]2C[C@H](O)C[C@](O)(CC(=O)O1)O2                  y
26  Cc1ccc(C(=O)C[n+]2cccc3c4ccccc4ccc32)cc1                  n

---

test system: A498 renal; experiment: NCI-60 one-dose screen, 48 h (100 = growth as untreated, 0 = no growth, -100 = all killed); conditions: 10 µM unless noted
Compounds without any hit were thinned out: in the full panel of roughly 83,000, 20% have a hit.
Record met whenever growth is at 90% or higher; record not met when lower.

In [3]: df
Out[3]:
                                    molecule  assigned_category
 0            O=C(Nc1nc2ccccc2s1)Nc1ccccc1Cl                met
 1  COc1ccc(/C=C/c2nc3ccccc3n3c(-c4cccc([N+](=O)[O-])c4)nnc23)cc1            not met
 2  CC1=C(C(=O)Nc2ccccc2)C(c2ccc3ccccc3c2)n2c(nc3ccccc32)N1 (stereo unspecified)                met
 3  Nc1nn2c(-c3cc4cc(Br)ccc4oc3=O)ccnc2c1N=Nc1ccccc1            not met
 4         CCCSc1nnc(-c2sc3nc4ccccc4n3c2C)o1                met
 5  COc1ccc2oc(=O)c(-c3csc(N/N=C(\C)c4cc(OC)c(OC)c(OC)c4)n3)cc2c1                met
 6  c1n[nH]cc1-c1nc2ccc3[nH]ncc3c2c2c1CC1(CCOCC1)CC2            not met
 7  N#Cc1ccc(C(=O)CSc2nc3c(c(Nc4ccc(S(N)(=O)=O)cc4)n2)CCC3)cc1                met
 8  COc1ccc(NC(=O)Cn2c(/C=C/c3cccc(Br)c3)nc3ccccc3c2=O)cc1            not met
 9      COc1ccc(-c2cc(C)nc3[nH]c(=O)sc23)cc1            not met
10  Fc1ccc(F)c(CNc2nc(SCCN3CCOCC3)nc3c2cnn3CC(Cl)c2ccc(Br)cc2)c1 (stereo unspecified)            not met
11  Cc1ccc(C(=O)Nc2cc(-n3cnc(F)c3)cc(C(F)(F)F)c2)cc1C#Cc1cnc2cccnn12                met
12  CN(CCSSCCN1CCOCC1)C(=O)Oc1cc2c(c3ccccc13)[C@H](CCl)CN2C(=O)c1cc2cc(OCCCN3CCC3)ccc2[nH]1            not met
13  O=C(NNC(=S)NCCc1ccccc1)c1ccc(OCc2nc3ccc(Cl)cc3[nH]2)cc1                met
14  CCOc1ccccc1[C@H]1C(C(=O)c2ccc(Cl)cc2)C2(N[C@@H]1c1ccccc1)C(=O)Nc1ccc(Cl)cc12 (stereo partly specified)            not met
15  COc1ccc2c(c1)c(-c1cc(N)n3nc(-c4c[nH]c5ccccc45)cc3n1)cn2C            not met
16  FC(F)(F)CN1CCN(CCn2c(C(F)(F)F)cc3c(Cl)ncnc32)CC1                met
17  Clc1ccc(CNc2nc(SCCN3CCOCC3)nc3c2cnn3CC(Cl)c2ccc(Br)cc2)cc1 (stereo unspecified)                met
18     Cn1ncc2c(N)nc(Oc3ccccc3-c3ccccc3)nc21                met
19  NS(=O)(=O)c1cccc(Nc2nc(SCC(=O)c3ccc(F)cc3)nc3ccccc23)c1            not met
20  O=[N+]([O-])c1cccc(-c2nnc3c(/C=C/c4ccc(F)cc4)nc4ccccc4n23)c1                met
21  CCOc1ccc(-c2cc(-c3cc(C(C)C)c(O)cc3C)nn2-c2ccc(S(N)(=O)=O)cc2)cc1                met
22  O=C(CSc1nnc(-c2ccc(-c3nc4ccc(Cl)cc4[nH]3)cc2)o1)Nc1ccccc1                met
23  COC(=O)c1cc(C(C)=O)n2c3ccccc3c3ccccc3c12                met
24  Cc1cc(C)c2[nH]c(=O)c(C(c3nnnn3Cc3ccc4c(c3)OCO4)N3CCN(C)CC3)cc2c1 (stereo unspecified)                met
25  Cc1ccc(C(C(=O)NC2CCCCC2)N(Cc2ccccc2Cl)C(=O)c2ccc(CN3CCOCC3)o2)o1 (stereo unspecified)                met
26  O=CNc1ccc(-n2cnc3cc(-c4ccc(O)cc4)ccc32)cc1                met
27  Cc1nc(Nc2ccccn2)sc1C1=NNC(c2ccccc2F)C1 (stereo unspecified)                met
28  Cc1ccc(Cl)cc1NC(=O)N/C(N)=N/c1nc2ccccc2s1            not met
29  CN(C)c1nc(NCCNS(=O)(=O)c2ccc(C(=O)/C=C/c3ccc(F)cc3)cc2)nc(N2CCOCC2)n1            not met
